The reported measurements were obtained from PubChem BioAssay AID1159580.

- Test name: chemical genetic growth profiling, strain panel (AID 1159580);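 further: tested at 20 µM; growth read once vehicle control cultures reached saturation at 30 °C; 1 = growth at the plate median or of vehicle wells; lower values mean less growth of the strain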
- Condition context: S. cerevisiae deletion strains, growth OD, locus YMR058W, strain fet3, active compounds read low
Hit rate of the full screen: of about 5,500 compounds, about 2,000 (36%) were called active. Another 18% or so got no clear call; they are omitted. Some of the results follow.
Value type: normalized growth

| Compound | Value type | Recorded measurement |
| --- | --- | --- |
| COc1ccc(-c2coc3cc(O)ccc3c2=O)cc1 | normalized growth | 0.952 (inactive) |
| NCCCS(=O)(=O)O | normalized growth | 1.04 (inactive) |
| C[C@@H]1CC(Cl)CC[C@H]1C(=O)OC(C)(C)C (stereo not given in full) | normalized growth | 0.976 (inactive) |
| C#CCN(C)Cc1ccccc1 | normalized growth | 1.04 (inactive) |
| COc1ccc(-c2coc3cc(O)ccc3c2=O)c(OC)c1 | normalized growth | 1 (inactive) |
| CCN1CCCC(OC(=O)C(c2ccccc2)c2ccccc2)C1 (stereo not given) | normalized growth | 0.982 (inactive) |
| O=c1c(-c2ccc(O)cc2)coc2cc(O)ccc12 | normalized growth | 0.981 (inactive) |
| CC[C@@H](C(=O)C(C)[C@@H](O)[C@H](C)CCc1ccc(C)c(O)c1C(=O)O)C1OC(CC)(C2CC[C@](O)(CC)[C@H](C)O2)C[C@@H]1C (stereo not given in full) | normalized growth | 1.04 (inactive) |
| C[C@]12CCC(=O)C=C1C=CC1C2CC[C@@]2(C)C1CC[C@@]2(O)CCC(=O)O (stereo not given in full) | normalized growth | 1.02 (inactive) |
| COc1ccc(-c2coc3cc(O)ccc3c2=O)c(OC)c1O | normalized growth | 0.977 (inactive) |
| C[C@]12CCC(=O)C=C1C=CC1C2CC[C@@]2(C)C1CC[C@@]21CCC(=O)O1 (stereo not given in full) | normalized growth | 0.964 (inactive) |
| NCCS(=O)(=O)O | normalized growth | 0.97 (inactive) |
| O=S(=O)(O)CCS | normalized growth | 1.01 (inactive) |
| COc1ccc(C(CN(C)C)C2(O)CCCCC2)cc1 (stereo not given) | normalized growth | 0.989 (inactive) |
| Clc1ccc(C(c2ccc(Cl)cc2)C(Cl)(Cl)Cl)cc1 | normalized growth | 1.01 (inactive) |
